species on record: Rattus norvegicus; experiment: DrugMatrix - Regimen: Daily Repeat; format: toxicity, organism-based, Sprague-Dawley; set-up: regimen Daily Repeat, gender Male, age 6-8 weeks; conditions: in vivo, po, 0 mg/kg, 72 h, tissue Plasma, route oral GAVAGE, dose level Control, time 3 day, vehicle .5 % CMC
readout-type: TOTAL PROTEIN (G/DL)
// units = G/DL; emit number, no label

Field: example entries. Status: answers known.
compound-smiles	value-reported
C=C(CC)C(=O)c1ccc(OCC(=O)O)c(Cl)c1Cl	6.28
Nc1cccc(Cl)c1	6.1

Now let's try a different one.
Asked: Give reported TOTAL PROTEIN value for "CO[C@H]1C[C@@H]2CC[C@@H](C)[C@@](O)(O2)C(=O)C(=O)N2CCCC[C@H]2C(=O)O[C@H]([C@H](C)C[C@@H]2CC[C@@H](O)[C@H](OC)C2)CC(=O)[C@H](C)/C=C(\C)[C@@H](O)[C@@H](OC)C(=O)[C@H](C)C[C@H](C)/C=C/C=C/C=C/1C"
Given back: 5.82

###

Measured BLOOD UREA NITROGEN, listed per entry.
organism: Rattus norvegicus; test: DrugMatrix - Regimen: Daily Repeat; type: toxicity, organism-based, Sprague-Dawley; parameters: regimen Daily Repeat, gender Male, age 6-8 weeks; conditions: in vivo, po, 0 mg/kg, 120 h, tissue Plasma, route oral GAVAGE, dose level Control, time 5 day, vehicle 100 % SALINE
Numeric answer only, unit mg/dL assumed.

Example entries begin here.
>>> df
                                   compound  result_unit  value_reported
0                                Oc1ccccc1O        mg/dL            15.2
1  Cc1cc(CC(=O)O)n(C)c1C(=O)c1ccc(Cl)cc1 [ZOMEPIRAC]        mg/dL            15.2
2  CCCc1nn(C)c2c(=O)[nH]c(-c3cc(S(=O)(=O)N4CCN(C)CC4)ccc3OCC)nc12        mg/dL              16

Next compound, BLOOD UREA NITROGEN to be filled in.
Asked: Using the record for "CC(=O)OCC(CCn1cnc2cnc(N)nc21)COC(C)=O" , state its measured BLOOD UREA NITROGEN.
Given back: 16

###

organism: Rattus norvegicus; assay: DrugMatrix - Regimen: Daily Repeat; format: toxicity, organism-based, Sprague-Dawley; set-up: regimen Daily Repeat, gender Male, age 6-8 weeks; settings: in vivo, ip, 40 mg/kg, […], tissue Blood, route intraperitoneal, dose level High, time 28 day, vehicle 100 % SALINE
readout-type: ABSOLUTE SEGMENTED NEUTROPHIL
In your response, the unit should come after the numeric value.

Asked: Give a short answer stating reported ABSOLUTE SEGMENTED NEUTROPHIL for "NC[C@H]1O[C@H](O[C@H]2[C@H](O)[C@@H](O[C@H]3O[C@H](CO)[C@@H](O)[C@H](N)[C@H]3O)[C@H](N)C[C@@H]2N)[C@H](N)C[C@@H]1O" .
Given back: 2010 cells/µL

###

species on record: Rattus norvegicus; assay: DrugMatrix - Regimen: Daily Repeat; type: toxicity, organism-based, Sprague-Dawley; design: regimen Daily Repeat, gender Male, age 6-8 weeks; conditions: in vivo, po, 0 mg/kg, 72 h, tissue Plasma, route oral GAVAGE, dose level Control, time 3 day, vehicle .5 % CMC
Mark fulfilled for CREATININE under 0.2 mg/dL, not fulfilled if at or over.

Consider the worked cases shown below.
>>> print(df.to_string())
                                   compound  category_label
0  Cc1cnc(C(=O)NCCc2ccc(S(=O)(=O)NC(=O)NC3CCCCC3)cc2)cn1 [GLIPIZIDE]       fulfilled
1  CC(=O)O[C@]1(C(C)=O)CC[C@H]2[C@@H]3C=C(Cl)C4=CC(=O)[C@@H]5C[C@@H]5[C@]4(C)[C@H]3CC[C@@]21C [CYPROTERONE ACETATE]       fulfilled
2       CN1C(=O)CN=C(c2ccccc2)c2cc(Cl)ccc21       fulfilled
3  CCOC(=O)[C@H](CCc1ccccc1)N[C@@H](C)C(=O)N1Cc2ccccc2C[C@H]1C(=O)O       fulfilled
4  CC[C@]1(O)CC[C@H]2[C@@H]3CCC4=CCCC[C@@H]4[C@H]3CC[C@@]21C   not fulfilled

Asked: Determine if "O=c1cc(-c2ccccc2)oc2ccc3ccccc3c12" shows CREATININE strictly lower than 0.2 mg/dL.
Given back: not fulfilled

Asked: Given the entry "C[C@]12C/C(=C/O)C(=O)C[C@@H]1CC[C@@H]1[C@@H]2CC[C@@]2(C)[C@H]1CC[C@]2(C)O" , would its reported CREATININE be below 0.2 mg/dL?
Given back: not fulfilled

Asked: Hello, I'm reviewing records and need to know if CREATININE of "C=C(CC)C(=O)c1ccc(OCC(=O)O)c(Cl)c1Cl" is below 0.2 mg/dL. Could you check?
Given back: not fulfilled

Asked: Below 0.2 mg/dL on CREATININE? Entry "Clc1cc2c(cc1Cl)Oc1cc(Cl)c(Cl)cc1O2"
Given back: not fulfilled

Sourced from ChEMBL document CHEMBL3885881
